- TARGET OR TEST SYSTEM: Matrix metalloproteinase-9 (Homo sapiens)
- Sequence (P14780 whole entry): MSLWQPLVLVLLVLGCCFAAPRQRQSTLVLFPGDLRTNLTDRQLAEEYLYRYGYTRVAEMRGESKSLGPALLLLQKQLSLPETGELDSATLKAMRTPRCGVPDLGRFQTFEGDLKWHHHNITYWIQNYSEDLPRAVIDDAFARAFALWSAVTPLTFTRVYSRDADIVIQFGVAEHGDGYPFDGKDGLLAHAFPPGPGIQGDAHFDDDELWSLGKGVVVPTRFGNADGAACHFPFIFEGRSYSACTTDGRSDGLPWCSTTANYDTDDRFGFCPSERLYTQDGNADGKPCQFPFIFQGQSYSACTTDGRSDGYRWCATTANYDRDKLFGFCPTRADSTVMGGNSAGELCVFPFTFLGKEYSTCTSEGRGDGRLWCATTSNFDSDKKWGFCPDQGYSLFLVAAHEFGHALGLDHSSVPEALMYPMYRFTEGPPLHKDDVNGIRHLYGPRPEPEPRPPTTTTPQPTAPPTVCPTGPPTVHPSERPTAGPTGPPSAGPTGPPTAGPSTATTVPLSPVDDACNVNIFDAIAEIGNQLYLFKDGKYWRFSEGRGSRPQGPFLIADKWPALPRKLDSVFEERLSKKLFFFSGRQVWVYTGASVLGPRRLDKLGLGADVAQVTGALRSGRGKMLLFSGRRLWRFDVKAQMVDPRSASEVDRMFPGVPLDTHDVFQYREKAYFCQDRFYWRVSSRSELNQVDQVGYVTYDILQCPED
- EXPERIMENTAL PROTOCOL: Inhibition of human full length MMP9 using Mca-Pro-Leu-Gly-Leu-Dap(Dnp)-Ala-Arg-NH2 as substrate at 10 uM incubated for 2 hrs prior to testing measured for 15 mins by fluorometric analysis relative to control
PROPERTY: inhibition
Don't forget the unit after the number, please.

Answer with the recorded inhibition of `Nc1ccc(Oc2ccc(S(=O)(=O)C[C@@H]3CS3)cc2)cc1` only.
98.3%

Answer with the recorded inhibition of `CC(=O)Nc1ccc(Oc2ccc(S(=O)(=O)C[C@@H]3CS3)cc2)cc1` only.
91.1%

Answer with the recorded inhibition of `Nc1ccc(Oc2ccc(S(=O)(=O)C[C@H]3CS3)cc2)cc1` only.
97.4%

Answer with the recorded inhibition of `CC(=O)Nc1ccc(Oc2ccc([S@@+]([O-])C[C@H]3CS3)cc2)cc1` only.
34.4%

Answer with the recorded inhibition of CC(=O)Nc1ccc(Oc2ccc(S(=O)(=O)CC3CS3)cc2)cc1 (racemic) only.
97.2%

====

PROPERTY: IC50 (nM)
Give your result in nM as a bare value.

Recall the reported IC50 of `COc1ccc(S(=O)(=O)N(CC(=O)NO)CC(C)C)cc1` on UniProt:P14780 and write it down.
5.9

====

- TARGET OR TEST SYSTEM: UniProtKB P08253
- Sequence (P08253 whole entry): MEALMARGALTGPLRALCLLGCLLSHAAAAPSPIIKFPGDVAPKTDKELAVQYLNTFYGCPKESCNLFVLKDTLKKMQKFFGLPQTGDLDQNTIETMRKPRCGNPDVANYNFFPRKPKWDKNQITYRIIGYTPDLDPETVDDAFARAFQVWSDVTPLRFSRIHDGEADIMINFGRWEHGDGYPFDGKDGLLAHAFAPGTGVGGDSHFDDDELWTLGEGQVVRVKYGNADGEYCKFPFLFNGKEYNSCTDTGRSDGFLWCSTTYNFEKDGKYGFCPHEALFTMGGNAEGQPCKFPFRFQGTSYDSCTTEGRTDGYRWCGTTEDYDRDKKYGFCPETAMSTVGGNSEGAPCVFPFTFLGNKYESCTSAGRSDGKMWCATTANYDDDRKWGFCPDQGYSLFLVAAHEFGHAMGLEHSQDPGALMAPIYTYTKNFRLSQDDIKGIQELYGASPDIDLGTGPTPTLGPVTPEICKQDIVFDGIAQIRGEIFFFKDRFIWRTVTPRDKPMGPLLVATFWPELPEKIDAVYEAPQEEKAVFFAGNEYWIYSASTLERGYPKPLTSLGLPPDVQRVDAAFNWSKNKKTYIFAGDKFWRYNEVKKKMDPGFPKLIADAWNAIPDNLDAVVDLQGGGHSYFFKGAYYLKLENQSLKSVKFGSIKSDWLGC
PROPERTY: IC50 (nM)
Give your result in nM as a bare value.

Recall the reported IC50 of `COc1ccc(S(=O)(=O)N(CC(=O)NO)CC(C)C)cc1` on UniProtKB P08253 and write it down.
2
